Molecular target: BRM (Homo sapiens, UniProt P51531)
Construct: Western Blot Screen of BRM Degradation in SW1573 Cells; endogenous in cells; host or cells: SW1573 cells
Sequence (P51531 whole entry): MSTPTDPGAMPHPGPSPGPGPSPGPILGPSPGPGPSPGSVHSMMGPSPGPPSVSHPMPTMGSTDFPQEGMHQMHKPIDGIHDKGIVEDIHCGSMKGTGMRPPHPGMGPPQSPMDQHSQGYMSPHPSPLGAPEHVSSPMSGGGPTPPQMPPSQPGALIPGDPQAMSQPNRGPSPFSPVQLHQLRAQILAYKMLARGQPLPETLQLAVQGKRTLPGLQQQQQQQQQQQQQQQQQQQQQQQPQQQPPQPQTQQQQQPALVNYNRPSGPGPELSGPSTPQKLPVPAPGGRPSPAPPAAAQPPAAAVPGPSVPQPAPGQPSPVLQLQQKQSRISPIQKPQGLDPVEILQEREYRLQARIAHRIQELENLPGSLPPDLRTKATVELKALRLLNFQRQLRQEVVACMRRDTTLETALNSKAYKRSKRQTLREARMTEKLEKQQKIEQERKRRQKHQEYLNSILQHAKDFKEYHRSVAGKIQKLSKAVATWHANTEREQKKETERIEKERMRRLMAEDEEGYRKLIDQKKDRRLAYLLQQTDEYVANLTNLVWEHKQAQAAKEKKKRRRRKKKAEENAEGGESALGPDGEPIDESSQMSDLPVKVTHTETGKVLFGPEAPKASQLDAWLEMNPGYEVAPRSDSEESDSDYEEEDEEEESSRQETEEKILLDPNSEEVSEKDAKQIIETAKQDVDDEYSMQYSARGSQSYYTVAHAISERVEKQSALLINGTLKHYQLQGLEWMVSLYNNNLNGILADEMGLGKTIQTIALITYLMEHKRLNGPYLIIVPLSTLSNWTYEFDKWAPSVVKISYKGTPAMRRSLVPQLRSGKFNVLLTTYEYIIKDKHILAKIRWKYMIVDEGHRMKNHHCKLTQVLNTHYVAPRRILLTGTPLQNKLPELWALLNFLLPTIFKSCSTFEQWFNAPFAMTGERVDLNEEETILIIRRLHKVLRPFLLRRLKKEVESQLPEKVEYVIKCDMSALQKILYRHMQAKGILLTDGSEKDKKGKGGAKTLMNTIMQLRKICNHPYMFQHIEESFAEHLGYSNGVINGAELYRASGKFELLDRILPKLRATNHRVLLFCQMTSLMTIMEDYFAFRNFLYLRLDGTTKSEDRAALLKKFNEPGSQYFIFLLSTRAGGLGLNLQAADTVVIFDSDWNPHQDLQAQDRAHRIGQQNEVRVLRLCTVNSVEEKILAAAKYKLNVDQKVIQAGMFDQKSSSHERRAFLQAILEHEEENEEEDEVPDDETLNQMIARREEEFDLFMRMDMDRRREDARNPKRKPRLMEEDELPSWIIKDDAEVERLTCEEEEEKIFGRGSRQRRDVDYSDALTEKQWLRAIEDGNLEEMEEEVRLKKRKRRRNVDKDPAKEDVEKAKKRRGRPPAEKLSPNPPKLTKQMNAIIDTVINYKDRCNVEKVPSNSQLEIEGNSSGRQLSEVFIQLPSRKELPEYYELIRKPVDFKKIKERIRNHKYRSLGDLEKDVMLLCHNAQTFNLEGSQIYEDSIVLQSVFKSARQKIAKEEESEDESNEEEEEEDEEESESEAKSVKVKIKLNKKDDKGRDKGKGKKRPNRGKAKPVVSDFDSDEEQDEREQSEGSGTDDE
Experiment: BRM degradation (Dmax and DC50) in SW1573 cells, Western blot screen / In-Cell Western screen
Assay type: cell-based
Conditions: overnight (18-20 hours) treatment, read-out: Dmax (%)** (% degraded)
Experimental: To assess BRM degradation (Dmax and DC50) cells were seeded at 8000/well in 96-well black/clear-bottom plates in 180 μL DMEM growth media (containing 1% pen-strep, 1% HEPES and 10% FBS) per well. Plates were incubated overnight to allow adhesion. […] To read each plate TBS-T was removed, and each plate was inverted tapped on a paper towel. […]
observation type: Dmax

Examples with their reported Dmax follow.
{"molecule": "Cc1ncsc1-c1ccc([C@H](C)NC(=O)[C@@H]2C[C@@H](O)CN2C(=O)[C@@H](c2cc(N3CCC(CN4CCC(O[C@H]5C[C@H](N6CCC(C(C)n7cc(/C=C/c8cc(-c9ccccc9O)nnc8N)cn7)CC6)C5)CC4)CC3)no2)C(C)C)cc1 (stereo partly shown)", "observation type": "Dmax", "measured result": "> 75%"}
{"molecule": "Cc1ncsc1-c1ccc([C@H](C)NC(=O)[C@@H]2C[C@@H](O)CN2C(=O)[C@@H](c2cc(N3CCC(O[C@H]4CC[C@H](Oc5cc(N6C7CCC6CN(c6cc(-c8ccccc8O)nnc6N)C7)ccn5)CC4)CC3)no2)C(C)C)cc1", "observation type": "Dmax", "measured result": "> 75%"}
{"molecule": "CC(C)[C@@H](C(=O)N1C[C@H](O)C[C@H]1C(=O)N[C@@H](C)c1ccc(C#N)cc1)c1cc(N2CCC(OCCN3CCC(Oc4cc(N5C6CCC5CN(c5cc(-c7ccccc7O)nnc5N)C6)ccn4)CC3)CC2)no1", "observation type": "Dmax", "measured result": "> 75%"}

Next up:
Problem: Report measured Dmax; entry is `Cc1ncsc1-c1ccc([C@H](C)NC(=O)[C@@H]2C[C@@H](O)CN2C(=O)[C@@H](c2cc(N3CCN(C(=O)N4CC(Oc5cc(N6C7CCC6CN(c6cc(-c8ccccc8O)nnc6N)C7)ccn5)C4)CC3)no2)C(C)C)cc1`
Solution: > 75%

###

molecular target: BRM (Homo sapiens, UniProt P51531); construct: Western Blot Screen of BRM Degradation in SW1573 Cells; endogenous in cells; host or cells: SW1573 cells; experiment: BRM degradation (Dmax and DC50) in SW1573 cells, Western blot screen / In-Cell Western screen; format: cell-based; settings: overnight (18-20 hours) treatment
observation type: DC50

Past entries and their recorded results:
{"molecule": "CC(C)[C@H](C(=O)N1C[C@H](O)C[C@H]1C(=O)N[C@@H](C)c1ccc(-c2ccnn2C)cc1)c1cc(N2CCC(CN3CCC(O[C@H]4C[C@H](Oc5cc(N6CCN(c7cc(-c8ccccc8O)nnc7N)CC6)ccn5)C4)CC3)CC2)no1 [Compound 2]", "observation type": "DC50", "measured result": "≥ 30 nM"}
{"molecule": "Cc1ncsc1-c1ccc([C@H](C)NC(=O)[C@@H]2C[C@@H](O)CN2C(=O)[C@@H](c2cc(N3CCC(CN4CCC(O[C@H]5C[C@H](N6CCC(F)(CN7C8CCC7CN(c7cc(-c9ccccc9O)nnc7N)C8)CC6)C5)CC4)CC3)no2)C(C)C)cc1 [Compound 27]", "observation type": "DC50", "measured result": "< 2.5 nM"}
{"molecule": "CC(C)[C@@H](C(=O)N1C[C@H](O)C[C@H]1C(=O)N[C@@H](C)c1ccc(-c2ccnn2C)cc1)c1cc(N2CCC(CN3CCC(O[C@H]4C[C@H](Oc5cc(/C=C/c6cc(-c7ccccc7O)nnc6N)ccn5)C4)CC3)CC2)no1 [Compound 30]", "observation type": "DC50", "measured result": "< 2.5 nM"}
{"molecule": "Cc1ncsc1-c1ccc([C@H](C)NC(=O)[C@@H]2C[C@@H](O)CN2C(=O)[C@@H](c2cc(OCCN3CCC(OC(=O)N4CCN(c5cc(-c6ccccc6O)nnc5N)CC4)CC3)no2)C(C)C)cc1 [Compound 64]", "observation type": "DC50", "measured result": "2.5 to 10 nM"}

Problem: Read the entry Cc1ncsc1-c1ccc([C@H](C)NC(=O)[C@@H]2C[C@@H](O)CN2C(=O)[C@@H](c2cc(N3CCC(CN4CCC5(CC4)CC(N4CCC[C@](O)(CN6C7CCC6CN(c6cc(-c8ccccc8O)nnc6N)C7)C4)C5)CC3)no2)C(C)C)cc1 [Compound 61] and write its reported DC50.
Solution: < 2.5 nM

Problem: In one line, give reported DC50 of the entry CC(C)[C@H](C(=O)N1C[C@H](O)C[C@H]1C(=O)N[C@@H](C)c1ccc(C#N)cc1)c1cc(N2CCC(OCCN3CCC(O[C@H]4C[C@H](Oc5cc(N6C7CCC6CN(c6cc(-c8ccccc8O)nnc6N)C7)ccn5)C4)CC3)CC2)no1 [Compound 152] .
Solution: ≥ 30 nM

Problem: Return value of DC50 for input Cc1ncsc1-c1ccc([C@H](C)NC(=O)C2C[C@@H](O)CN2C(=O)[C@@H](c2cc(N3CCC(CN4CC[C@@H](Oc5cc(N6C7CCC6CN(c6cc(-c8ccccc8O)nnc6N)C7)ccn5)C(F)(F)C4)CC3)no2)C(C)C)cc1 (stereo in doubt) [Compound 53] , no commentary.
Solution: 2.5 to 10 nM

Problem: Provide DC50 value for the following molecule: CC(C)[C@H](C(=O)N1C[C@H](O)C[C@H]1C(=O)N[C@@H](C)c1ccc(C#N)cc1)c1cc(N2CCC(C(=O)N3CCC(O[C@H]4C[C@H](Oc5cc(N6C7CCC6CN(c6cc(-c8ccccc8O)nnc6N)C7)ccn5)C4)CC3)CC2)no1 [Compound 137]
Solution: ≥ 30 nM

###

biological target: BRM (Homo sapiens); construct: Western Blot Screen of BRM Degradation in SW1573 Cells; endogenous in cells; host or cells: SW1573 cells; assay: BRM degradation (Dmax and DC50) in SW1573 cells, Western blot screen / In-Cell Western screen; assay type: cell-based; conditions: overnight (18-20 hours) treatment
observation type: DC50

Answered examples (6):
{"compound": "CC(C)C(C(=O)N1C[C@H](O)C[C@H]1C(=O)N[C@@H](C)c1ccc(-c2ccnn2C)cc1)c1cc(OCC#Cc2ncc(O[C@H]3C[C@H](Oc4cc(N5CCN(c6cc(-c7ccccc7O)nnc6N)CC5)ccn4)C3)cn2)no1 (some centres unmarked)", "target of assay": "BRM (Homo sapiens)", "DC50": "< 2.5 nM"}
{"compound": "CC(C)[C@@H](C(=O)N1C[C@H](O)C[C@H]1C(=O)N[C@@H](C)c1ccc(C#N)cc1)c1cc(N2CCC(OCCN3CCC(Oc4cc(N5CCN(c6cc(-c7ccccc7O)nnc6N)CC5)ccn4)CC3)CC2)no1", "target of assay": "BRM (Homo sapiens)", "DC50": "10 to 30 nM"}
{"compound": "Cc1ncsc1-c1ccc([C@H](C)NC(=O)[C@@H]2C[C@@H](O)CN2C(=O)[C@@H](c2cc(N3CCC(CN4CCC5(CC4)CC(C#CC(C)n4cc(-c6cc(-c7ccccc7O)nnc6N)cn4)C5)CC3)no2)C(C)C)cc1 (some centres unmarked)", "target of assay": "BRM (Homo sapiens)", "DC50": "< 2.5 nM"}
{"compound": "Cc1ncsc1-c1ccc([C@H](C)NC(=O)[C@@H]2C[C@@H](O)CN2C(=O)[C@@H](c2cc(N3CCC(CN4CCC5(CC4)CC(N4CCOC6(CC(CN7C8CCC7CN(c7cc(-c9ccccc9O)nnc7N)C8)C6)C4)C5)CC3)no2)C(C)C)cc1", "target of assay": "BRM (Homo sapiens)", "DC50": "2.5 to 10 nM"}
{"compound": "Cc1ncsc1-c1ccc([C@H](C)NC(=O)[C@@H]2C[C@@H](O)CN2C(=O)[C@@H](c2cc(OCCN3CCN(CCOc4cc(N5C6CCC5CN(c5cc(-c7cc(F)ccc7O)nnc5N)C6)ccn4)[C@H](C)C3)no2)C(C)C)cc1", "target of assay": "BRM (Homo sapiens)", "DC50": "< 2.5 nM"}
{"compound": "CC(C)[C@H](C(=O)N1C[C@H](O)C[C@H]1C(=O)N[C@@H](C)c1ccc(-c2scnc2C#CCOCCOCCOc2cc(N3C4CCC3CN(c3cc(-c5ccccc5O)nnc3N)C4)ccn2)cc1)N1Cc2ccccc2C1=O", "target of assay": "BRM (Homo sapiens)", "DC50": "2.5 to 10 nM"}

Problem: Respond only with DC50 recorded for `Cc1ncsc1-c1ccc([C@H](C)NC(=O)[C@@H]2C[C@@H](O)CN2C(=O)[C@@H](c2cc(N3CCC(CN4CCC5(CC4)CC(N4CCO[C@H](CN6C7CCC6CN(c6cc(-c8ccccc8O)nnc6N)C7)C4)C5)CC3)no2)C(C)C)cc1`
Solution: < 2.5 nM

Problem: Identify measured DC50 corresponding to `Cc1ncsc1-c1ccc([C@H](C)NC(=O)[C@@H]2C[C@@H](O)CN2C(=O)[C@@H](c2cc(N3CCC(CN4CCC5(CC4)CC(N4CCC[C@@H](CN6C7CCC6CN(c6cc(-c8ccccc8O)nnc6N)C7)C4)C5)CC3)no2)C(C)C)cc1`
Solution: < 2.5 nM
